Target: Shh-N in conditioned medium (human, UniProt Q15465 24-197, N-terminal palmitoyl modification; lacks the C-terminal cholesterol moiety)
Test: cell-based or functional assay
Below is a list of entries, each paired with its recorded % Inh of Gli1 reporter, CM N = 3 value.
Number only, in %; omit the unit.

Consider the worked cases shown below.
**Q:** If you can, please state the reported % Inh of Gli1 reporter, CM N = 3 value of 1G12 (antibody, V domains shown, fully human XenoMouse hybridoma antibody; tested as hybridoma supernatant and as purified antibody; also called MAb 1G12) VH: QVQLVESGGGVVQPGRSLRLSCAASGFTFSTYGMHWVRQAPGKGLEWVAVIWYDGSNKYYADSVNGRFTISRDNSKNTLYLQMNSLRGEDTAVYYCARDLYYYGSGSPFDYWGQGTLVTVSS VL: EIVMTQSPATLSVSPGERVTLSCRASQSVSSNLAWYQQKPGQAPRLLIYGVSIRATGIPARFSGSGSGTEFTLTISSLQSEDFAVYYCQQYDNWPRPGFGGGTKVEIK .
**A:** 40

**Q:** Recorded % Inh of Gli1 reporter, CM N = 3 for 1G1 (antibody, V domains shown, fully human XenoMouse hybridoma antibody; also called MAb 1G1) VH: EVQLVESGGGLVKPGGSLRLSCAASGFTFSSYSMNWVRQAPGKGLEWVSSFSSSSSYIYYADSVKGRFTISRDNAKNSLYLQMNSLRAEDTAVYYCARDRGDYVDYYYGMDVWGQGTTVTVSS VL: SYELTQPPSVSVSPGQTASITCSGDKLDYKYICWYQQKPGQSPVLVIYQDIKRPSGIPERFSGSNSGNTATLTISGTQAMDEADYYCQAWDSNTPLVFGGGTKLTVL , please?
**A:** 47

**Q:** Please look up its % Inh of Gli1 reporter, CM N = 3: 1A5 (antibody, V domains shown, fully human XenoMouse hybridoma antibody; tested as hybridoma supernatant and as purified antibody; also called MAb 1A5) VH: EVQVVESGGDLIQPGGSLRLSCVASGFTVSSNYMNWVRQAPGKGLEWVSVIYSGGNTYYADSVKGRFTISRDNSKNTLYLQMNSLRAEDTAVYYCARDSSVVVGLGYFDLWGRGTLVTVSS VL: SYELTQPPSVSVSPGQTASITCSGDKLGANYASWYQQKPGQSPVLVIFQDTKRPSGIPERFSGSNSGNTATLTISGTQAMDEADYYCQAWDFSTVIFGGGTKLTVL
**A:** 62

**Q:** Fill in: % Inh of Gli1 reporter, CM N = 3 of 1H12 (antibody, V domains shown, fully human XenoMouse hybridoma antibody; tested as hybridoma supernatant and as purified antibody; also called MAb 1H12) VH: QVQLVQSGAEVKKPGASVKVSCKASGYTFTGYYMHWVRQAPGQGLEWVGWFNPNSGGTNCAQKFQGRVTMTRDTSISTAYMELSRLRSDDTAVYYCAREAVESYYYGLDVWGQGTTVTVSS VL: QSVVTQPPSASGTPGQRITISCSGSSSNIGSNYVYWYHQLPGSAPNLLIYRNNQRPSGVPDRFSGSKSGTSASLAISGLRSEDEADYFCAVWDDSLRGVVFGGGTKLTVL is ___
**A:** 40

Next binder, % Inh of Gli1 reporter, CM N = 3 to be filled in.
**Q:** Item under review: 3H8 (antibody, V domains shown, fully human XenoMouse hybridoma antibody; also called MAb 3H8) VH: QVQLVESGGGVVQPGRSLRLSCAASGFTFSTYGMHWVRQAPGKGLEWVAVIWYDGSNKYYADSVKGRFTISRDNSKNTLNLQMNSLRAEDTAVYYCARDLYYYGSGSPFDYWGQGTLVTVSS VL: EIVMTQSPATLSVSPGERATLSCRASQSVSSNLAWYQQKPGQAPRLLIFGVSIRATGIPARFSGSGSGTEFTLTISSLQSEDFAVYYCQQYNNWPRPGFGGGTKVEIK . Reported % Inh of Gli1 reporter, CM N = 3?
**A:** -24
